Reference source: patent US10781211B2

target: MAGL (Mus musculus (Mouse), UniProt O35678); assay: Mouse brain proteomes from inhibitor treated mice (oral gavage, sacrifice 4 h after administration, ABPP analysis); type: in vivo; settings: 5 mg/kg oral gavage
Sequence (O35678 whole entry): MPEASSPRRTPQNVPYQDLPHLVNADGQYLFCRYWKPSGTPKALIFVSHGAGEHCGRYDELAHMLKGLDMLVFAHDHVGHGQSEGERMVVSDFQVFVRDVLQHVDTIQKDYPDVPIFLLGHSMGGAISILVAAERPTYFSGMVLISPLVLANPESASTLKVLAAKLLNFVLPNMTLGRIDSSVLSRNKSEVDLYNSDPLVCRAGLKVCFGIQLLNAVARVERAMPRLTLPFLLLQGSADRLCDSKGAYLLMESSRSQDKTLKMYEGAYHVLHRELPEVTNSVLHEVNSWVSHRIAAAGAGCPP
Reported Metric: MAGL % Inh 5 mg/kg (mouse)

Return reported MAGL % Inh 5 mg/kg (mouse); argument: O=C(OC(C(F)(F)F)C(F)(F)F)N1CCC2(CCCN2Cc2ccc(C(F)(F)F)cc2N2CCOCC2)CC1 [Example 67] ### (### is ≥ 75%)

Need MAGL % Inh 5 mg/kg (mouse), item Cc1c(CN2CCCC23CCN(C(=O)OC(C(F)(F)F)C(F)(F)F)CC3)cccc1N1CCCC1 [Example 85] ### (### is ≥ 75%)

Give its MAGL % Inh 5 mg/kg (mouse) value. Item: O=C(O)C1CCN(c2cc(F)cc(CN3CCCC34CCN(C(=O)OC(C(F)(F)F)C(F)(F)F)CC4)c2)CC1 [Example 236] ### (### is ≥ 75%)

Would you mind telling me what MAGL % Inh 5 mg/kg (mouse) value was observed for O=C(OC(C(F)(F)F)C(F)(F)F)N1CCC2(CCN(Cc3ccc(Cl)cc3N3CCOCC3)C2)CC1 [Example 21] ? ### (### is ≥ 75%)
